# testedTarget: factor Xa (Homo sapiens, UniProt P00742)
# Sequence (P00742 235-488 limits assumed): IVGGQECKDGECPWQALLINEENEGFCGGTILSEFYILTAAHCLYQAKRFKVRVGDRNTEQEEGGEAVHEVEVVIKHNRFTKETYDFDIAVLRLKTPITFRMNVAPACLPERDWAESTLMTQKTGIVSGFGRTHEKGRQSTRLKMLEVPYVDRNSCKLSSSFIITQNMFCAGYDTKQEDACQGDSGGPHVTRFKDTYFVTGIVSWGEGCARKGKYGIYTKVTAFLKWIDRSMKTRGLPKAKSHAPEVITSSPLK
# Sequence (P00742 41-179 limits assumed): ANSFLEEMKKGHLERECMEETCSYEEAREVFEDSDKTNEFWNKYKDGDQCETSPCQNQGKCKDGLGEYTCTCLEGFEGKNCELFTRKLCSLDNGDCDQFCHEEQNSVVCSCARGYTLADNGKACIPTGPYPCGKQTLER
# protocolNotes: Factor Xa assay (Test 1a), chromogenic
# Format: biochemical
# Parameters: purchased Enzyme Research Laboratories, Inc; South Bend, Ind
# measurementSetup: in vitro factor Xa assay Test 1a; human factor Xa 0.5 nM, substrate S-2765 140 μM, 25° C.; Ki from IC50 corrected for substrate competition
pKi: −log10 of the molar value.
valueKind: pKi

Cc1ccccc1C(Cc1ccc(C(=N)N)cc1)C(=O)N[C@H](C(=O)N[C@@H](CCCNC(=N)N)C(N)=O)C1CCCCC1 (mixture of isomers) : 8.52

a: Cc1ccccc1C(Cc1ccc(C(=N)N)cc1)C(=O)NC(C(=O)NCC1CCN(C(=N)N)CC1)C1CCCCC1 (single isomer, unassigned; less polar) [Example 163]
b: Cc1ccc(C(Cc2ccc(C(=N)N)cc2)C(=O)NC(C(=O)NCc2ccc(C(=N)N)cc2)C2CCCCC2)cc1 (single isomer, unassigned; more polar) [Example 153]
Prompt: Of a and b , which shows the smaller pKi value? // respond with label for picked entry
Response: b
